- subject.of.test: T1, pig CD47 (pig, UniProt Q9GKE8 19-303)
- T1 construct: whole, on cells; also called CD47 on pig red blood cells
- T1 sequence (looked up): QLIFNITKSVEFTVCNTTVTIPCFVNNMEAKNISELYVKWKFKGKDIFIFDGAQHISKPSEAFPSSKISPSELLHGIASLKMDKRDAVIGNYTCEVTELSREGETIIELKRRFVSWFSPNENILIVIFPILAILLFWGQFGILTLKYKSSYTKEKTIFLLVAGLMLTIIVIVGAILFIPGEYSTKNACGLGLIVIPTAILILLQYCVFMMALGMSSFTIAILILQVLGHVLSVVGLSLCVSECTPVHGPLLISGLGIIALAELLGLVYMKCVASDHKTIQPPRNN
- method.description: flow cytometry on RBCs, antibody 10 ng/ml
Listing of recorded mean fluorescence relative to chimeric antibody by entry.

Illustrative cases are given below, each with its answer.
pVxK7b-037-hum10-LC/pVxK7b-037-hum10-HC (antibody, human IgG1, V domains shown, Full-length human IgG1/kappa in CHO supernatant; Variable entries end within framework 4 (...FGQG / ...WGQG); also called Clone 10) VH: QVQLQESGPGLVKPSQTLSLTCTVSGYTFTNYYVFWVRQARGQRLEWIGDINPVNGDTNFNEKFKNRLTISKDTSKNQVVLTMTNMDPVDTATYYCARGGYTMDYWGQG VL: DIVMTQTPLSLPVTPGEPASISCRSSQSLVHSNGNTYLHWYLQKPGQSPQLLIYKVSYRFSGVPDRFSGSGSGTDFTLKISRVEAEDVGVYYCSQNTHVPRTFGQG: 1.5 fold of chimera
pVxK7b-037-hum15-LC/pVxK7b-037-hum15-HC (antibody, human IgG1, V domains shown, Full-length human IgG1/kappa in CHO supernatant; Variable entries end within framework 4 (...FGQG / ...WGQG); also called Clone 15) VH: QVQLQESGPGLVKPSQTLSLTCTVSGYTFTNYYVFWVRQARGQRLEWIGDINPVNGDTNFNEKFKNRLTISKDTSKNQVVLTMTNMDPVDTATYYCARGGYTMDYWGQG VL: AIQLTQSPSSLSASVGDRVTITCRSSQSLVHSNGNTYLHWYQQKPGQAPRLLIYKVSYRFSGVPSRFSGSGSGTEFTLTISSLQPDDFATYYCSQNTHVPRTFGQG: 1.2 fold of chimera

// query Request the reported mean fluorescence relative to chimeric antibody associated with pVxK7b-037-hum16-LC/pVxK7b-037-hum16-HC (antibody, human IgG1, V domains shown, Full-length human IgG1/kappa in CHO supernatant; Variable entries end within framework 4 (...FGQG / ...WGQG); also called Clone 16) VH: QVQLQESGPGLVKPSQTLSLTCTVSGYTFTNYYVFWVRQARGQRLEWIGDINPVNGDTNFNEKFKNRVTISADKSISTAYLQWSSLKASDTAMYYCARGGYTMDYWGQG VL: AIQLTQSPSSLSASVGDRVTITCRSSQSLVHSNGNTYLHWYQQKPGQAPRLLIYKVSYRFSGVPDRFSGSGSGTDFTLKISRVEAEDVGVYYCSQNTHVPRTFGQG
// result 1.1 fold of chimera

// query Request the reported mean fluorescence relative to chimeric antibody associated with pVxK7b-037-hum04-LC/pVxK7b-037-hum04-HC (antibody, human IgG1, V domains shown, Full-length human IgG1/kappa in CHO supernatant; Variable entries end within framework 4 (...FGQG / ...WGQG); also called Clone 4) VH: QVQLQESGPGLVKPSQTLSLTCTVSGYTFTNYYVFWVRQAPGKGLEWVSDINPVNGDTNFNEKFKNRVTISVDTSKNQFSLKLSSVTAADTAVYYCARGGYTMDYWGQG VL: DIQMTQSPSSLSASVGDRVTITCRSSQSLVHSNGNTYLHWYLQKPGQSPQLLIYKVSYRFSGIPARFSGSGSGTEFTLTISSLQSEDFAVYYCSQNTHVPRTFGQG
// result 0.6 fold of chimera
